Each recorded value in this set is attributed to patent US20260070917A1.

# target-system: CCNE1 (Homo sapiens, UniProt P24864)
# Construct: host or cells: HEK293-CCNE1-Hibit
# Sequence (P24864 whole entry): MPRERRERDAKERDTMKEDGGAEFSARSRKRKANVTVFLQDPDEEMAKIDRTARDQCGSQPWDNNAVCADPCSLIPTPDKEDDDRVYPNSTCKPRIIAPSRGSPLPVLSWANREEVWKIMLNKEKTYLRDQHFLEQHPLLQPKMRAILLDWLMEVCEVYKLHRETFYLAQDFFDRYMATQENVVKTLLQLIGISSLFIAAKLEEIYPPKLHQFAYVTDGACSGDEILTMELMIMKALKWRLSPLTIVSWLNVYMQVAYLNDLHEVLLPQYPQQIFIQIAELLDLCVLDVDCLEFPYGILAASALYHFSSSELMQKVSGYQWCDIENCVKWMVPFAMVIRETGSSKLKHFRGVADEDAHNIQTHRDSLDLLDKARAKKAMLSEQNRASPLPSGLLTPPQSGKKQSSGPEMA
# test-description: HiBit Assay Protocol for CCNE1 (HIBIT protein quantification, degradation)
# Type: cell-based
# experimental-context: HEK293-CCNE1-Hibit cells, compound treatment for 6 hours
# Protocol: HiBit Assay Protocol for CCNE1 • 1. The culture medium for HEK293-CCNE1-Hibit cell was prepared using EMEM with […]. • 2. Cells were cultivated in T-75 flasks in a cell culture incubator set at 37° C., 5% CO2, 95% relative humidity. […] Cells were harvested from flask into cell culture medium and then the cell number was counted. […] • 1. […] 20 μL of HiBit reagent was added into each well and the plates were spinned at room temperature at 1,000 RPM for 1 minute to be detected. […]
value-kind: CCNE1 HIBIT Protein Quantification Maximum (%)

- molecule: "Cc1cc(CN2CCC(c3ccc4c(N5CCC(=O)NC5=O)nn(C)c4c3)CC2)cc(S(=O)(=O)N2CCC(Nc3ncc4c(n3)N([C@@H]3CCC[C@@H](O)C3)C(=O)C43CC3)CC2)c1"
  readout-number: 32
- molecule: "CC1CCCC1N1C(=O)C2(CC2)c2cnc(NC3CCN(S(=O)(=O)C4CCN(C(=O)CCCCCc5ccc6c(c5)n(C)c(=O)n6C5CCC(=O)NC5=O)C4)CC3)nc21 (stereo not shown)"
  readout-number: 15
- molecule: "O=C1CCC(N2Cc3cc(N4CCC(N5CC(Oc6cccc(S(=O)(=O)N7CCC(Nc8ncc9c(n8)N([C@@H]8CCC[C@@H](O)C8)C(=O)C98CC8)CC7)c6)C5)CC4)ccc3C2=O)C(=O)N1 (stereo partly shown)"
  readout-number: 18
- molecule: "CC1CCCC1N1C(=O)C2(CC2)c2cnc(NC3CCN(S(=O)(=O)N4CC5CN(C(=O)CCCCc6ccc7c(c6)n(C)c(=O)n7C6CCC(=O)NC6=O)CC54)CC3)nc21 (stereo not shown)"
  readout-number: 9
- molecule: "CC1CCCC1N1C(=O)C2(CC2)c2cnc(NC3CCN(S(=O)(=O)N4CC5CN(C(=O)CCCCc6cccc7c6n(C)c(=O)n7C6CCC(=O)NC6=O)CC54)CC3)nc21 (stereo not shown)"
  readout-number: 1
- molecule: "CC1CCCC1N1C(=O)C2(CC2)c2cnc(NC3CCN(S(=O)(=O)N4CC5(CCN(C(=O)CCCCCc6cccc7c6n(C)c(=O)n7C6CCC(=O)NC6=O)CC5)C4)CC3)nc21 (stereo not shown)"
  readout-number: 29
- molecule: "CC1CCCC1N1C(=O)C2(CC2)c2cnc(NC3CCN(S(=O)(=O)N4CCC5(CCCN5C(=O)CCCCCCCc5cccc6c5n(C)c(=O)n6C5CCC(=O)NC5=O)C4)CC3)nc21 (stereo not shown)"
  readout-number: 41.1
- molecule: "CC1CCCC1N1C(=O)C2(CC2)c2cnc(NC3CCN(S(=O)(=O)N4CCN(C(=O)CCCc5cccc6c5n(C)c(=O)n6C5CCC(=O)NC5=O)CC4)CC3)nc21 (stereo not shown)"
  readout-number: 27
- molecule: "CC1CCCC1N1C(=O)C2(CC2)c2cnc(NC3CCN(S(=O)(=O)N4CC5(CCCN(C(=O)CCCCc6ccc7c(c6)n(C)c(=O)n7C6CCC(=O)NC6=O)C5)C4)CC3)nc21 (stereo not shown)"
  readout-number: 25
- molecule: "CC1CCCC1N1C(=O)C2(CC2)c2cnc(NC3CCN(S(=O)(=O)N4CC5(CN(C(=O)CCCCc6ccc7c(c6)n(C)c(=O)n7C6CCC(=O)NC6=O)C5)C4)CC3)nc21 (stereo not shown)"
  readout-number: 16
